The measurements presented in this section are drawn from patent US9708289B2.

Experiment: Evaluation of pharmacokinetics in rats
Assay type: in vivo, SD rats
Conditions: rat, in vivo, po; male SD rats, 10 mg/kg intragastric, mean, n = 4
Listing: MRT of selected molecules

| molecule | unit name | MRT |
| --- | --- | --- |
| [2H]C([2H])([2H])NC(=O)c1ccc(N2C(=S)N(c3cnc(C#N)c(C(F)(F)F)c3)C(=O)C23CCC3)cc1F | h | 13 |
| CNC(=O)c1ccc(N2C(=S)N(c3cnc(C#N)c(C(F)(F)F)c3)C(=O)C23CCC3)cc1F [Compound 10, reference compound] | h | 10.7 |

---

Recorded half-life values for a group of compounds are listed next.
Experiment: Evaluation of pharmacokinetics in rats
Format: in vivo, SD rats
Conditions: rat, in vivo, po; male SD rats, 10 mg/kg intragastric, mean, n = 4

| compound | half-life / h |
| --- | --- |
| CNC(=O)c1ccc(N2C(=S)N(c3cnc(C#N)c(C(F)(F)F)c3)C(=O)C23CCC3)cc1F [Compound 10, reference compound] | 7.38 |
| [2H]C([2H])([2H])NC(=O)c1ccc(N2C(=S)N(c3cnc(C#N)c(C(F)(F)F)c3)C(=O)C23CCC3)cc1F [Compound 14] | 8.93 |
